testedTarget: T1, CD33 (immobilized on CM5 sensor chip) (UniProt P20138 18-259, limits assumed)
T1 construct: also called CD33 antigen
T1 sequence (P20138 18-259 limits assumed): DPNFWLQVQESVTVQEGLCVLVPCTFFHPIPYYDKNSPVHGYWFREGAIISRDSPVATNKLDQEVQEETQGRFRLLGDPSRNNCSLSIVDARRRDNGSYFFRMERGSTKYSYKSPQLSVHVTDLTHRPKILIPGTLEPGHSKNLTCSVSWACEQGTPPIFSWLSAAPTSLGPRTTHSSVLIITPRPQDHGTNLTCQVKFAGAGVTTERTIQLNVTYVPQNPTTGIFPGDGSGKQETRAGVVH
assayExplanation: SPR (Biacore T-200), CD33 immobilized on CM5 chip
Kindly state pKd for each of the entries shown.
Numbers only, as −log10 of the molar value.

Can you give me pKd for all of these, one by one?
1. humanized HIM34 BsAb L4H7 (bispecific antibody, human IgG1, V domains shown, Tested as a humanized HIM34×CD3 BsAb in the IgG-scFv format (human IgG1 N297A/K322A, humanized OKT3 scFv on the light chain)) VH: QVQLQQSGAEVKKPGASVKVSCKASGYSFTDYNMYWVRQAPGQGLEWIGYIDPYKGGTIYNQKFKGRATLTRDTSISTAYMELSRLRSDDTAVYYCAREMITAYYFDYWGQGSSVTVSS VL: DIQMTQSPSSLSASVGDRVTITCKASQDINKYIAWYQHKPGKAPKLLIYYASNLQPGVPSRFSGSGSGRDFTFTISSLQPEDIATYYCLQYDNLLTFGAGTKLELK
2. humanized HIM34 BsAb L4H1 (bispecific antibody, human IgG1, V domains shown, Tested as a humanized HIM34×CD3 BsAb in the IgG-scFv format (human IgG1 N297A/K322A, humanized OKT3 scFv on the light chain)) VH: QVQLQQSGAEVVKPGASVKVSCKASGYSFTDYNMYWVRQAPGQGLEWIGYIDPYKGGTNYAQKFQGRVTMTVDKSSSTAYMELSRLRSDDTAVYYCAREMITAYYFDYWGQGSSVTVSS VL: DIQMTQSPSSLSASVGDRVTITCKASQDINKYIAWYQHKPGKAPKLLIYYASNLQPGVPSRFSGSGSGRDFTFTISSLQPEDIATYYCLQYDNLLTFGAGTKLELK
3. humanized HIM34 BsAb L4H4 (bispecific antibody, human IgG1, V domains shown, Tested as a humanized HIM34×CD3 BsAb in the IgG-scFv format (human IgG1 N297A/K322A, humanized OKT3 scFv on the light chain)) VH: QVQLVQSGAEVKKPGASVKVSCKASGYSFTDYNMYWVRQAPGQGLEWIGYIDPYKGGTNYAQKFQGRATLTVDKSSSTAYMELSRLRSDDTAVYYCAREMITAYYFDYWGQGSSVTVSS VL: DIQMTQSPSSLSASVGDRVTITCKASQDINKYIAWYQHKPGKAPKLLIYYASNLQPGVPSRFSGSGSGRDFTFTISSLQPEDIATYYCLQYDNLLTFGAGTKLELK
4. humanized HIM34 BsAb L3H4 (bispecific antibody, human IgG1, V domains shown, Tested as a humanized HIM34×CD3 BsAb in the IgG-scFv format: human IgG1 with N297A/K322A, humanized OKT3 scFv on the light chain C-terminus via (G4S)3) VH: QVQLVQSGAEVKKPGASVKVSCKASGYSFTDYNMYWVRQAPGQGLEWIGYIDPYKGGTNYAQKFQGRATLTVDKSSSTAYMELSRLRSDDTAVYYCAREMITAYYFDYWGQGSSVTVSS VL: DIQMTQSPSSLSASVGDRVTITCKASQDINKYIAWYQHKPGKAPKLLIHYTSTLETGVPSRFSGSGSGTDFTFTISSLQPEDIATYYCLQYDNLLTFGAGTKLELK

1. 9.70
2. 8.92
3. 8.78
4. 9.02
